Tested on: Candida parapsilosis
Assay: Antifungal activity against Candida parapsilosis bloodstream isolates by broth microdilution method
Format: functional
Conditions: Lodderomyces parapsilosis
valueKind: MIC50 (µg/mL)
All answers are understood in µg/mL, so give the number only.

Using the record for `OC(Cn1cncn1)(Cn1cncn1)c1ccc(F)cc1F` , report its MIC50.
1

Using the record for `C[C@@H](c1ncncc1F)[C@](O)(Cn1cncn1)c1ccc(F)cc1F` , report its MIC50.
0.031

Using the record for `Nc1nc(=O)[nH]cc1F` , report its MIC50.
0.125

Using the record for C[C@@H]1[C@H](O)[C@@H](C)/C=C/C=C/C=C/C=C/C=C/C=C/C=C/[C@H](O[C@@H]2O[C@H](C)[C@@H](O)[C@H](N)[C@@H]2O)C[C@@H]2O[C@](O)(C[C@@H](O)C[C@@H](O)[C@H](O)CC[C@@H](O)C[C@@H](O)CC(=O)O[C@H]1C)C[C@H](O)[C@H]2C(=O)O (stereo in doubt) , report its MIC50.
0.25

Using the record for CCC(C)n1ncn(-c2ccc(N3CCN(c4ccc(OCC5COC(Cn6cncn6)(c6ccc(Cl)cc6Cl)O5)cc4)CC3)cc2)c1=O (stereo unspecified) , report its MIC50.
0.016

Using the record for `C[C@@H](c1nc(-c2ccc(C#N)cc2)cs1)[C@](O)(Cn1cncn1)c1cc(F)ccc1F` , report its MIC50.
0.016

----------
System: Nakaseomyces glabratus
Assay: Antifungal activity against Candida glabrata bloodstream isolates by broth microdilution method
Format: functional
Could you please report measured MIC50 for the items listed next?
All answers are understood in µg/mL, so give the number only.

Using the record for CCC(C)n1ncn(-c2ccc(N3CCN(c4ccc(OCC5COC(Cn6cncn6)(c6ccc(Cl)cc6Cl)O5)cc4)CC3)cc2)c1=O (stereo not given) , report its MIC50.
0.5

Using the record for C[C@@H]1[C@H](O)[C@@H](C)/C=C/C=C/C=C/C=C/C=C/C=C/C=C/[C@H](O[C@@H]2O[C@H](C)[C@@H](O)[C@H](N)[C@@H]2O)C[C@@H]2O[C@](O)(C[C@@H](O)C[C@@H](O)[C@H](O)CC[C@@H](O)C[C@@H](O)CC(=O)O[C@H]1C)C[C@H](O)[C@H]2C(=O)O (stereo in doubt) , report its MIC50.
0.5

Using the record for `Nc1nc(=O)[nH]cc1F` , report its MIC50.
0.063

Using the record for `C[C@@H](c1ncncc1F)[C@](O)(Cn1cncn1)c1ccc(F)cc1F` , report its MIC50.
0.5

Using the record for `C[C@@H](c1nc(-c2ccc(C#N)cc2)cs1)[C@](O)(Cn1cncn1)c1cc(F)ccc1F` , report its MIC50.
0.25
